# target_under_test: SMO (Mus musculus)
# Construct: endogenous in cells; host or cells: C3H10T1/2 (ATCC #CCL-226)
# assay_info: Smoothened (SMO)/Sonic Hedgehog (SHh) Transient Transcriptional Activation Assay (Gli-luciferase reporter in C3H10T1/2 cells)
# Type: cell-based, murine
# test_conditions: C3H 10T1/2, 2 μM test compound, SHh 250 ng/ml, 20 hrs, read-out: SMO CELL % INHIBITION @ 2 μM
Structures can show the parent of a compound that is named as a salt.
# if value of inhibition at 2 µM reaches 80%, tag condition met; if it stays below, tag condition not met

INPUT: Item O=C(N[C@@H]1CCC[C@@H](c2nc3ccccc3[nH]2)C1)c1ccc2c(c1)OCCO2 [Example 241, HCl] with inhibition at 2 µM of 80% or above?
OUTPUT: condition not met

INPUT: Item O=C(NC1CCCC(c2nc3ccccc3[nH]2)C1)C1CCCO1 (centres unmarked) [Example 121] with inhibition at 2 µM of 80% or above?
OUTPUT: condition met

INPUT: Item O=C1CCc2cc(C(=O)NC3CCCC(c4nc5ccccc5[nH]4)C3)ccc2N1 (centres unmarked) [Example 137] with inhibition at 2 µM of 80% or above?
OUTPUT: condition met

INPUT: Item COc1cc(OC)cc(C(=O)NC2CCCC(c3nc4ccc(C#N)cc4[nH]3)C2)c1 (centres unmarked) [Example 68] with inhibition at 2 µM of 80% or above?
OUTPUT: condition met

INPUT: Item O=C(N[C@@H]1CCC[C@H](c2nc3ccccc3[nH]2)C1)c1cnc2c(c1)OCCO2 [Example 243] with inhibition at 2 µM of 80% or above?
OUTPUT: condition met

INPUT: Item COc1cc(OC)cc(C(=O)NC23CCCC(c4nc5ccccc5n4C)(C2)C3)c1 [Example 245] with inhibition at 2 µM of 80% or above?
OUTPUT: condition not met

INPUT: Item CC(C)C1=NOC(C(=O)NC2CCCC(c3nc4ccccc4[nH]3)C2)C1 (centres unmarked) [Example 97] with inhibition at 2 µM of 80% or above?
OUTPUT: condition met

====

# target_under_test: SMO (Mus musculus, UniProt P56726)
# Construct: endogenous in cells; host or cells: C3H10T1/2 (ATCC #CCL-226)
# Sequence (P56726 33-793): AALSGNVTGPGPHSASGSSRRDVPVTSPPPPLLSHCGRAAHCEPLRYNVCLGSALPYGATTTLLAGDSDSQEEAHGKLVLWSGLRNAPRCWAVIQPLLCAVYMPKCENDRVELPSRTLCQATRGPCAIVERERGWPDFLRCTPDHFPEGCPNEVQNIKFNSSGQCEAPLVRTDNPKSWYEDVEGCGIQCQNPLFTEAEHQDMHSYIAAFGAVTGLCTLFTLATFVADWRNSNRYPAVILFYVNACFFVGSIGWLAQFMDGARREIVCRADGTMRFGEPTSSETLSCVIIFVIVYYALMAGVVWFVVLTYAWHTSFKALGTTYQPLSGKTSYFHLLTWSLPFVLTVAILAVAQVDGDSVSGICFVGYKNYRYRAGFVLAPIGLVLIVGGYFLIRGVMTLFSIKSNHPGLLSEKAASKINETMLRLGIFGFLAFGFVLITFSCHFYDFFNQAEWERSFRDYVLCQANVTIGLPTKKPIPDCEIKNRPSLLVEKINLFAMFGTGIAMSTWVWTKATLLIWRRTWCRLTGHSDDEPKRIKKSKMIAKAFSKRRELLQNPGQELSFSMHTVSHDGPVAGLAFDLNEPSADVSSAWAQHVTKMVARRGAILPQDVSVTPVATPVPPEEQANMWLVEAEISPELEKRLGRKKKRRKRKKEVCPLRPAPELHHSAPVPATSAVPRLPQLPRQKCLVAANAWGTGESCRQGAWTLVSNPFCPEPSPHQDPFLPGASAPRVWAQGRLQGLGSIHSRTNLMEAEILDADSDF
# assay_info: Smoothened (SMO)/Sonic Hedgehog (SHh) Transient Transcriptional Activation Assay (Gli-luciferase reporter in C3H10T1/2 cells)
# Format: cell-based, murine
# test_conditions: 2 μM test compound, SHh 250 ng/ml, 20 hrs, HCl, 2 µM
Structures can show the parent of a compound that is named as a salt.
SMO CELL % INHIBITION @ 2 μM: recorded values
Only the number, expressed in %, is required.

>>> meas_value("N#Cc1ccc(NC(=O)NC23CCCC(c4nc5cc(C(F)(F)F)ccc5[nH]4)(C2)C3)cc1 [Example 262, HCl]")
89
>>> meas_value("O=C(NC12CCCC(c3nc4cc(C(F)(F)F)ccc4[nH]3)(C1)C2)c1cc2c(cn1)OCCO2 [Example 264, HCl]")
94.31
>>> meas_value("COc1cc(OC)cc(C(=O)NC23CCCC(c4nc5cc(C(F)(F)F)ccc5[nH]4)(C2)C3)c1 [Example 260, HCl]")
101.34

INPUT: If you can, please state the reported SMO CELL % INHIBITION @ 2 μM value of O=C(N[C@@H]1CCC[C@H](c2nc3ccccc3[nH]2)C1)c1ccc2c(c1)CCCO2 [Example 266, HCl] .
OUTPUT: 102.05
